biological target: C-C chemokine receptor type 3 (Homo sapiens); test: Antagonist activity at human EGFP-fused CCR3 expressed in mouse L1.2 cells assessed as inhibition of CCL11-induced chemotaxis at 1 uM measured after 1.5 hrs by PicoGreen dsDNA reagent-based assay; type: cell-based
Activity calls are given as the source filed them. The calls are words filed in the database; no cut-off is given here.
Recorded Metric: inhibition

[[record]]
molecule_smiles = "C=CCc1cc(OC)c(O[C@@H](C)[C@H](OC(C)=O)c2ccc(OC)c(OC)c2)c(OC)c1"
recorded_metric = "inhibition"
assay_value = "Active"

[[record]]
molecule_smiles = "C=CCc1cc(OC)c2c(c1)OCO2"
recorded_metric = "inhibition"
assay_value = "Active"

[[record]]
molecule_smiles = "C/C=C/c1cc(OC)c2c(c1)[C@@H](C)[C@H](c1cc(OC)c(O)c(OC)c1)O2"
recorded_metric = "inhibition"
assay_value = "Active"

[[record]]
molecule_smiles = "C=CCc1cc(OC)c(O[C@H](C)[C@@H](O)c2cc(OC)c(O)c(OC)c2)c(OC)c1"
recorded_metric = "inhibition"
assay_value = "Active"

[[record]]
molecule_smiles = "COc1cc([C@H]2Oc3c(OC)cc(/C=C/C=O)cc3[C@@H]2C)ccc1O"
recorded_metric = "inhibition"
assay_value = "Active"

